Test system: MS2 coat protein
Method summary: apparent KD of MS2 coat protein; designed switch direction (-1 OFF switch, 1 ON switch): -1; higher = weaker reporter binding
Measurement context: input ligand: microRNA oligo, concentration not stated
Collected apparent KD of MS2 coat protein values appear next to each entry.
Please format your answer as a value with the unit trailing.

Here's what some known entries look like.
CUAAAUCAUGUAGGAUAUGCGUGGCAAAGCUAUGCAGAAGGACAUGAGGAUCACCCAUGUGCUUCCGUCUGAGUACAGACGGUA [Mat - Exclusion NG 1 - Mod of JL - D22] (Eterna round: R96, puzzle: Exclusion NG 1) :: 72.9 nM
ACAAGCAUUUAUCUUUUCAAAUAUUAUCGUCUUAUAAUUACAUGAGGAUCACCCAUGUAUAGAGGGUGAGAGAUACU [JR_Sensorv2_tov2_Sub552] (Eterna round: R96, puzzle: Sensor v2, turn-off variant 2) :: 121 nM
AGUACUAACACGAAAGUGUUAGUACAAAUGAGCUUUUGAACAUGAGGAUCACCCAUGUCCUCAUAAGCUCGUCUUAA [Mat - Sensor v2 - var 2 - Mod - D174] (Eterna round: R96, puzzle: Sensor v2, turn-off variant 2) :: 408 nM

Proceed to the following item.
GACGACUCGUCAGGAUAUGUAAACGAGCAAUUGACAGAAGGGACACUGUCGAGGGUACACAUGAGGAUCACCCAUGUACUCGUC [Eternabot solution 40] (Eterna round: R96, puzzle: Exclusion NG 1) yielded apparent KD of MS2 coat protein of 10.3 nM

----------
System: MS2 coat protein
Method summary: apparent KD of MS2 coat protein, switch ON state; designed switch direction (-1 OFF switch, 1 ON switch): -1; higher = weaker reporter binding
Measurement context: FMN input: 0 or 200 uM; Eterna round: R93 (includes R88 designs)
Collected apparent KD of MS2 coat protein values appear next to each entry.
Give just the number in nM; leave the unit off.

AAAAAACAUGAGGAUCACCCAUGUCAGGAUAUCCGGUUCUUAAAAAAAAAGAGGCGUUGGAGAAGGGACAUUCC [Chica Displaced 12 - Jieux - Exclusion 1] yielded apparent KD of MS2 coat protein of 26.7

AAACCACAUGAGGAUCACCCAUGUUAGGAUAUGAACGAAAAUAAAUAAAAAUAAAAGUUCAGAAGGGACAAAAA [66%, Wbt, 21] yielded apparent KD of MS2 coat protein of 21.5

GGUUGGCGAGGAUAUACAUGAGGAUCACCCAUGUGAGAGAAAAAAGUGAUAAAGAAAAGUAGAAGGCGCUGACG [salish99-ex3-32] yielded apparent KD of MS2 coat protein of 120

AAGGAUCGAGGAUAUACAUAGAUACAGAUACAUGUAGAACUACAUGAGGAUCACCCAUGUAGAAGGCGAUCAUA [AJ 30] yielded apparent KD of MS2 coat protein of 23.9

AGUUGGCGAGGAUAUACAUGAGGAUCACCCAUGUGAGAGAAAAAAGUGAGAAAGAAAAGUAGAAGGCGCUCACA [JL Lego Mod 12] yielded apparent KD of MS2 coat protein of 62.1

AAAAUGUCAGGAUAUGUAAAAAAAAAAAAAAAAAAAAAAAUACAGAAGGGACAUGAGGAUCACCCAUGUCAGGG [EX4 390: Minimal 2] yielded apparent KD of MS2 coat protein of 113
